Kindly state IC90 for each of the entries shown.
# Test system: Plasmodium berghei
# Protocol details: Luciferase/luciferin-expressing antifolate-resistant parasites were used to infect a culture of HepG2 cells that were pre-incubated with compounds. Infected hepatocytes emit light due to the luciferase reaction. Assay results are presented as the percent inhibition of light emission compared to control. […]
# Assay type: functional
# Conditions: sporozoite, read-out: LUCIFERASE INFECTION ASSAY - IC90

Entry smiles	Assay system	IC90
O=C(CN1CCN(Cc2ccc(-n3cccn3)cc2)CC1)Nc1ccc(OC(F)(F)F)cc1	Plasmodium berghei	> 10 µM
O=C(Nc1cc(Cl)cc(Cl)c1)N1CCC(n2cccc2)CC1	Plasmodium berghei	> 9.76 µM
Nc1ncc(-c2ccc(CO)cc2)cc1-c1ccc(F)c(Cl)c1	Plasmodium berghei	> 10 µM

Pending molecule:
Record lookup: for Plasmodium berghei, what IC90 belongs to `COc1ccc(-c2csc3ncnc(NCCC(C)C)c23)cc1` ? > 10 µM

----------
# System: Plasmodium berghei
# Protocol details: Luciferase/luciferin-expressing antifolate-resistant parasites were used to infect a culture of HepG2 cells that were pre-incubated with compounds. Infected hepatocytes emit light due to the luciferase reaction. Assay results are presented as the percent inhibition of light emission compared to control. […]
# Assay type: functional
# Conditions: sporozoite, read-out: LUCIFERASE INFECTION ASSAY - IC90
Exercise: for every item that follows, state its recorded IC90.

For orientation, consider the following solved cases.
Molecule	Val
Cc1ccc2nc(-c3ccc(NC(=O)COC(=O)c4ccccc4C(=O)c4ccccc4)cc3)sc2c1	> 10 µM
Cc1nn(Cc2ccccc2Cl)c(C)c1C(=O)OCC(=O)N1CCN(c2ccccc2)CC1	> 10 µM
CC(C)c1ccc(-c2cnc3sc(NCCCO)nn23)cc1	> 10.4 µM

// batch mode: one IC90 value per listed entry
1. Cc1ccsc1CN(C)Cc1nnc(C(=O)Nc2ccc(Cl)cc2)s1
2. Cc1ccc(CSc2ccc([N+](=O)[O-])c3nonc23)cc1
3. O=c1cc(N2CCCN(c3ccc(C(F)(F)F)cn3)CC2)nc2ccccn12
4. CCOc1ccc(-c2cc(-c3ccc(S(C)(=O)=O)cc3)nc3c2cnn3C(C)C)cc1

["> 10 µM", "> 11 µM", "> 10 µM", "> 10 µM"]

Please go through the list and note IC90 for each molecule.
1. O=C(Nc1cccc(C(F)(F)F)c1)Nc1ccc2nc(-c3ccco3)nn2c1
2. COc1cccc(-c2noc(COC(=O)c3ccc(C)s3)n2)c1
3. CCOc1ccc(N2CC(C(=O)N3CCCC(c4nc(C)no4)C3)CC2=O)cc1 (configuration not stated)
4. COc1ccc(CNC(=O)N(C)CCOc2ccc(OC)cc2)cc1
5. Cc1c(Cl)cccc1NC(=O)CNC(=O)CN1CCc2ccccc2C1

> 10 µM
> 10 µM
> 10 µM
> 10 µM
> 10 µM

Count: 3. Required value per item: IC90.
1. CCOC(=O)c1sc(N(Cc2ccccc2)C(=O)C2CC2C)nc1C (configuration not stated)
2. CCOC(=O)c1ccc2c(c1)C1C=CCC1C(c1cccnc1)N2 (configuration not stated)
3. COc1ccc(/C=N/OCC(=O)Nc2ccccc2C(F)(F)F)cc1

1. > 10 µM
2. > 10.3 µM
3. > 10 µM

Below are some molecules; for each one, tell me its IC90.
1. COc1ccc(Cl)cc1C(=O)NNC(=O)c1oc2ccccc2c1CSC1CCCCC1
2. COc1cc(-c2cnc3cnc(-c4ccc(N5CCN(C)CC5)nc4)cn23)ccc1O

["> 10 µM", "> 7.92 µM"]
